# Study target: Histamine N-methyltransferase (Homo sapiens)
# Measurement description: Primary Screen for Target Class Profiling of Small Molecule Inhibitors of Methyltransferases; also: % is scaled to controls: 0 for no effect and ±100 for the full control effect
# Condition notes: purified enzyme, MTase-Glo SAH luminescence; measured here: HNMT inhibition; at 40 µM; stronger effect = lower value
Hit rate of the full screen: of about 25,000 compounds, about 970 (3.9%) were called active. Not shown: some 8% with an inconclusive outcome. The sample as a whole holds a higher share of actives than the screen did.
Quantity measured: activity change, negative = inhibition (%)
Answers are plain numbers, in %.

COc1ccc(CNc2nc3c(S(=O)(=O)c4ccc(C)cc4)nnn3c3ccccc23)cc1
3.99
CC(C)CCn1c(=O)c2ccccc2n2c(CCC(=O)NCCc3ccccc3)nnc12
6.82
CN1C(=O)C2(CCN(Cc3cccn3C)C2)c2ccccc21 (configuration not stated)
-17.5
CCCCNC(=O)CCc1nnc2n(CC(C)C)c(=O)c3ccccc3n12
5.26
Cc1nn(-c2ccccc2)c2c1C(C)N(C1CCN(C(=O)NC3CCCC3)C1)C2=O (configuration not stated)
-6.3

Give activity change, negative = inhibition for each listed item.
1. COCCn1c(=O)c(C(=O)N2CCN(C(C)=O)CC2)nc2cccnc21
2. CCOc1ccc(NC(=O)N2Cc3c(sc4c3CCCC4)-n3cccc3C2c2ccc(C)cc2)cc1 (configuration not stated)
3. CC1(C)CC[C@]2(C(=O)O[C@@H]3O[C@H](CO)[C@@H](O)[C@H](O)[C@H]3O)CC[C@]3(C)C(=CCC4[C@@]5(C)CC[C@H](O[C@@H]6O[C@H](C(=O)O)[C@@H](O)[C@H](O)[C@H]6OC6OC(CO)C(O)C(O)C6O)C(C)(C)C5CC[C@]43C)[C@@H]2C1 (some centres not stated)

[A]
[-3.36, -0.466, 8.45]
